# System Under Test: T1, human GIPR (human, UniProt P48546 22-466)
# T1 sequence (looked up): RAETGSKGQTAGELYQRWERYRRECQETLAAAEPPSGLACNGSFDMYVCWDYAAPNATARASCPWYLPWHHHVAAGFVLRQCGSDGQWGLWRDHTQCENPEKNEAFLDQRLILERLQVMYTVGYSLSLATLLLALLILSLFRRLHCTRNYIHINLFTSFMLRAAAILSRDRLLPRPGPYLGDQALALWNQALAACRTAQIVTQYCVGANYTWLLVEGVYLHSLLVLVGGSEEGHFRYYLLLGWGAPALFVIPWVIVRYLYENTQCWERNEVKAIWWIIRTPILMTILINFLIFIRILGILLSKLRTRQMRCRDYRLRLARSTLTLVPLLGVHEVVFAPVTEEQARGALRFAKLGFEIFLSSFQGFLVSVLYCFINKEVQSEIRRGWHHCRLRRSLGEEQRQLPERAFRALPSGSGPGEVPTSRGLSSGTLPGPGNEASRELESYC
# Assay Procedure: cell-based or functional assay
Square brackets hold non-standard residues; d marks the D form. Side chains are listed from the residue outwards. αMeF = C[C@](N)(Cc1ccccc1)C(=O)O; Iva = CC[C@](C)(N)C(=O)O; Oda = not defined here; Aib = CC(C)(N)C(=O)O
We begin with a simple list: items and their reported Agonist activity (EC50), Cre-luc reporter assay.
Answer format: numeric, pM implied, no suffix.

Consider the following illustrative entries.
H-Y[Aib]EGT[αMeF]TSDK([Gly-Gly-Gly-Gly-Pal])AI[Aib]LEKQRQ[Iva]EFVRHLLNK[Aib]TRQRY-NH2    42
Me-Y[Aib]EGT[αMeF]TSDK([Gly-Gly-Gly-Gly-Oda])SI[Aib]LEKQRQ[Iva]EFVRHLLNK[Aib]TRQRY-NH2 (reading uncertain; also: printed as Me-Tyr-Aib-Glu-Gly-Thr-αMePhe-Thr-Ser-Asp-Lys(-Gly-Gly-Gly-Gly-Oda)-Ser-Ile-Aib-Leu-Glu-Lys-Gln-Arg-Gln-Iva-Glu-Phe-Val-Arg-His-Leu-Leu-Asn-Lys-Aib-Thr-Arg-Gln-Arg-Tyr-NH2)    250

The binder Me-Y[Aib]EGT[αMeF]TSDK([Gly-Gly-Gly-Gly-Oda])[Aib]I[Aib]LEKQRQ[Iva]EFVRHLLNK[Aib]TRQRY-NH2 (reading uncertain; also: printed as Me-Tyr-Aib-Glu-Gly-Thr-αMePhe-Thr-Ser-Asp-Lys(-Gly-Gly-Gly-Gly-Oda)-Aib-Ile-Aib-Leu-Glu-Lys-Gln-Arg-Gln-Iva-Glu-Phe-Val-Arg-His-Leu-Leu-Asn-Lys-Aib-Thr-Arg-Gln-Arg-Tyr-NH2) showed Agonist activity (EC50), Cre-luc reporter assay equal to 530
